- measurement-target: S. pombe Lumazine Synthase (Schizosaccharomyces pombe)
- Sequence (Q9UUB1 whole entry): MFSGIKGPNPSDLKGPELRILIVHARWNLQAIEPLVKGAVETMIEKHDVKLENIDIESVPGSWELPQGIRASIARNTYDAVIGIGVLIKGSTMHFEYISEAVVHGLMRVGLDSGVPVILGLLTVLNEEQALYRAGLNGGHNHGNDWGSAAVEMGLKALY
- protocol-summary: Lumazine synthase kinetic inhibition assay
- Type: biochemical
- experimental-context: recombinant S. pombe LS
readout-name: Mode of inhibition

Completed entries (count: 5):
>  <molecular-string>
O=c1[nH]c(/C=C/c2cccc([N+](=O)[O-])c2)c([N+](=O)[O-])c(=O)[nH]1

>  <Mode of inhibition>
Mixed

$$$$
>  <molecular-string>
COc1ccc(/C=C/c2[nH]c(=O)[nH]c(=O)c2[N+](=O)[O-])cc1O

>  <Mode of inhibition>
Uncompetitive

$$$$
>  <molecular-string>
O=c1[nH]c(/C=C/c2cc(O)ccc2O)c([N+](=O)[O-])c(=O)[nH]1

>  <Mode of inhibition>
Uncompetitive

$$$$
>  <molecular-string>
O=c1[nH]c(/C=C/c2ccccc2O)c([N+](=O)[O-])c(=O)[nH]1

>  <Mode of inhibition>
Competitive

$$$$
>  <molecular-string>
O=C(O)c1ccc(/C=C/c2[nH]c(=O)[nH]c(=O)c2[N+](=O)[O-])cc1

>  <Mode of inhibition>
Mixed

$$$$

For each listed entry, give its Mode of inhibition.
1. O=c1[nH]c(/C=C/c2ccc([N+](=O)[O-])c(O)c2)c([N+](=O)[O-])c(=O)[nH]1
2. COc1cccc(/C=C/c2[nH]c(=O)[nH]c(=O)c2[N+](=O)[O-])c1OC

["Mixed", "Competitive"]
